biological target: Sodium-dependent serotonin transporter (Rattus norvegicus, UniProt P31652); assay: Affinity for RB Serotonin transporter was determined in vitro by incubating compound
Sequence (P31652 whole entry): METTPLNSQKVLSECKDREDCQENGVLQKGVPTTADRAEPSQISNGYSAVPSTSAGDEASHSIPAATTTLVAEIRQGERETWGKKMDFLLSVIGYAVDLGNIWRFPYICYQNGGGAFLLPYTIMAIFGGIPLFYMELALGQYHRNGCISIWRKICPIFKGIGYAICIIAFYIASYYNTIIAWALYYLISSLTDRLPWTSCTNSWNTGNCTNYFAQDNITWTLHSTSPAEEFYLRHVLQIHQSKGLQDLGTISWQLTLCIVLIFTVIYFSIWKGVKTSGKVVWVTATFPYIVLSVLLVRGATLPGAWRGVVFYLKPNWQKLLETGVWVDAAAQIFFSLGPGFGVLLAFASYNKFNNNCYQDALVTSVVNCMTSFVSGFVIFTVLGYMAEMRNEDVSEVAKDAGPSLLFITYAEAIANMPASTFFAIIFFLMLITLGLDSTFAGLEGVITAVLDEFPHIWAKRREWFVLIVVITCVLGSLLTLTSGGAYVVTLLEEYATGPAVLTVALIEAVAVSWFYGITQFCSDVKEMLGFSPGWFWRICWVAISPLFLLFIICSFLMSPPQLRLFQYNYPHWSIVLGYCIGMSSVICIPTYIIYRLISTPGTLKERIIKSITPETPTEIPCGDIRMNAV
pKi: −log10 of the molar value.
Response key: Fulfilled means pKi >= 10; Not fulfilled means pKi < 10.

INSERT INTO results (chemical_structure, class_assignment) VALUES
  ('Fc1ccc2c(C3CCN(CCOc4cccc5c4OCCO5)CC3)c[nH]c2c1', 'Not fulfilled'),
  ('Fc1ccc2[nH]cc(C3=CCN(CCOc4cccc5c4OCCO5)CC3)c2c1', 'Not fulfilled'),
  ('C1=C(c2c[nH]c3ccccc23)CCN(CCOc2cccc3ncccc23)C1', 'Not fulfilled'),
  ('C1=C(c2c[nH]c3ccccc23)CCN(CCOc2cccc3[nH]ccc23)C1', 'Fulfilled');
